biological target: chicken Estrogen Receptor (ESR1), ESR1 (gene 396099) (UniProt P06212); experiment: ATG_chERa_XSP1: Attagene TRANS-FACTORIAL Multi-Species (XSP1) HepG2 Assay for chicken Estrogen Receptor (ESR1) (AID 2283779)
Sequence (P06212 whole entry, looked up): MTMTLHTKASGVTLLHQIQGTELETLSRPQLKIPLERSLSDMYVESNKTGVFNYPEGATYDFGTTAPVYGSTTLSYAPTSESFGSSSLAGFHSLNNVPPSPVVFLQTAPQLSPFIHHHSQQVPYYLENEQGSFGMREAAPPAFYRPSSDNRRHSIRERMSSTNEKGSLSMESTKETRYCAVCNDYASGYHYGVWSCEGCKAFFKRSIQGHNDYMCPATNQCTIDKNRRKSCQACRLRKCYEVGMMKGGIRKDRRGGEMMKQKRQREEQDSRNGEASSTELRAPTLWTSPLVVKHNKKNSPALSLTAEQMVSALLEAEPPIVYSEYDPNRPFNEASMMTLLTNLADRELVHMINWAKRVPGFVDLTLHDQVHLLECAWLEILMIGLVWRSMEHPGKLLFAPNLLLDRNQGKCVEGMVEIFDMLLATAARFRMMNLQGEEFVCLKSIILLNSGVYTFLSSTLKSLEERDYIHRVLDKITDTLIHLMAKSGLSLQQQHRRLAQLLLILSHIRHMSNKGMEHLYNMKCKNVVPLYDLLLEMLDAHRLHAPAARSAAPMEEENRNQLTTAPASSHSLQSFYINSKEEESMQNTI
Records with an inconclusive call do not appear. Activity calls are given as the source filed them. How the source made its calls: active means hit-call score of the fitted dose curve at least 0.9, where 1 is the maximum; inconclusive means response in the unintended direction; inactive means score below 0.9.
Entries and their measured AC50 follow.

Guide cases for AC50, answers given:
Substance smiles	System name	AC50
CCCCCOC(=O)c1ccccc1C(=O)OCCCCC	chicken Estrogen Receptor (ESR1), ESR1 (gene 396099) (UniProt P06212)	27 µM (active)
Clc1ccc(C(c2ccc(Cl)cc2)C(Cl)Cl)cc1	chicken Estrogen Receptor (ESR1), ESR1 (gene 396099) (UniProt P06212)	10.1 µM (active)
CCCCOC(=O)c1ccccc1C(=O)OCc1ccccc1	chicken Estrogen Receptor (ESR1), ESR1 (gene 396099) (UniProt P06212)	7.78 µM (active)

"Clc1ccc(C(c2ccc(Cl)cc2)C(Cl)(Cl)Cl)cc1" has a reported AC50 of 2.52 µM (active)

The origin of these recorded values is PubChem BioAssay (EPA / NIEHS).
